targetDesc: UniProt P62937
Sequence (P62937 whole entry): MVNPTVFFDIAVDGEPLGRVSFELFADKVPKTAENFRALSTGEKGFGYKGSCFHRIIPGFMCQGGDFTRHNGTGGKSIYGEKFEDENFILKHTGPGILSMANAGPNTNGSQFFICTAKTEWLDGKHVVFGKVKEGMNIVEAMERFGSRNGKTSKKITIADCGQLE
assayProcedure: CYPA-compound binary complex formation by SPR
conditionSummary: read-out: CYPA Binding Affinity
pKd: −log10 of the molar value.
Recorded pKd, one value per entry.

Illustrative cases are given below, each with its answer.
INSERT INTO results (compound, targetdesc, quantityname, recordedresult) VALUES
  ('C=CC(=O)N1CCC(C(=O)N(C)C(C(=O)NC2Cc3cc(O)cc(c3)-c3ccc4c(c3)N(CC(C)(C)COC(=O)C3CCCN(N3)C2=O)CC4(C)COC)C2CCCC2)C1 (stereo not shown) [Compound 398]', 'UniProt P62937', 'pKd', '≥ 5.30'),
  ('C=CC(=O)N1CCN([C@H](C(=O)N[C@H]2Cc3cc(O)cc(c3)-c3ccc4c(CC#N)cn(c4c3)CCCOC(=O)[C@@H]3CCCN(N3)C2=O)C(C)C)C1=O [Compound 96]', 'UniProt P62937', 'pKd', '≥ 5.30'),
  ('CC1COC(=O)[C@@H]2CCCN(N2)C(=O)[C@@H](NC(=O)[C@H](C(C)C)N(C)C(=O)C2CN(C(=O)CCl)C2)Cc2cc(O)cc(c2)-c2ccc3c(C#N)cn(c3c2)C1 (single isomer, unassigned) [Compound 88]', 'UniProt P62937', 'pKd', '< 4.82'),
  ('CC#CC(=O)N1CC(C(=O)N(C)[C@H](C(=O)N[C@H]2Cc3cc(O)cc(c3)-c3ccc4c(c3)n(c(=O)n4C)CC(C)(C)COC(=O)[C@@H]3CCCN(N3)C2=O)C(C)C)C1 [Compound 190]', 'UniProt P62937', 'pKd', '≥ 5.30'),
  ('C=CC(=O)N1CCN([C@H](C(=O)N[C@H]2Cc3cc(O)cc(c3)-c3ccc4c(Cl)nn(c4c3)CC(C)(C)COC(=O)[C@@H]3CCCN(N3)C2=O)C(C)C)C1=O [Compound 200]', 'UniProt P62937', 'pKd', '< 4.82');

Lookup: Using the record for CC(C)[C@@H](C(=O)N[C@H]1Cc2cc(O)cc(c2)-c2ccc3c(CCC#N)cn(c3c2)C[C@H](C)COC(=O)[C@@H]2CCCN(N2)C1=O)N(C)C(=O)C1CN(C(=O)CCl)C1 [Compound 76] , report its pKd.
Found: ≥ 5.30

Lookup: Requested read-out: pKd. Entry: CC(C)[C@@H](C(=O)N[C@H]1Cc2cc(O)cc(c2)-c2ccc3c(c2)n(c(=O)n3C)CC(C)(C)COC(=O)[C@@H]2CCCN(N2)C1=O)N(C)C(=O)C1CN(C(=O)CCl)C1 [Compound 189]
Found: ≥ 5.30
